- TEST_DESCRIPTION: Solubility pH7.4
- Assay type: physicochemical
- RUN_CONDITIONS: pH 7.4, aqueous buffer
Reported values of solubility for individual entries

MOLECULE | solubility, µg/mL
C[C@@H](C[C@H](NC(=O)c1ccc(-c2ccccc2)cc1)C(=O)NC(C)(C)Cc1ccc(F)cc1)C(=O)O [Compound 5] | 677
C[C@@H](C[C@H](NC(=O)c1ccc(-c2cccnc2)cc1)C(=O)NC(C)(C)Cc1ccc(F)cc1)C(=O)O [Compound 16] | 365
C[C@@H](C[C@H](NC(=O)c1ccc(-c2ccccc2)cn1)C(=O)NC(C)(C)Cc1ccc(F)cc1)C(=O)O [Compound 13] | 855
Cc1cnc(-c2ccc(C(=O)N[C@@H](C[C@H](C)C(=O)O)C(=O)NC(C)(C)Cc3ccc(F)cc3)cc2)s1 [Compound 19] | 637
C[C@@H](C[C@H](NC(=O)N1CCN(c2ccccc2)CC1)C(=O)NC(C)(C)Cc1ccc(F)cc1)C(=O)O [Compound 15] | 924
C[C@@H](C[C@H](NC(=O)N1CCC(c2ccccc2)CC1)C(=O)NC(C)(C)Cc1ccc(F)cc1)C(=O)O [Compound 18] | 805
CCC[C@@H](C[C@H](NC(=O)c1ccc(-c2ccccc2)cc1)C(=O)NC(C)(C)Cc1ccc(F)cc1)C(=O)O [Compound 7] | 157
